Would you kindly list koff for each of these binders?
SYSTEM: cynomolgus IL-1beta (cynomolgus, UniProt P79182 117-268)
MEASUREMENT_DESCRIPTION: SPR (BIAcore); antibody captured by anti-Fc, IL-1beta injected

H34 + C52aS mutations (antibody, V domains shown) VH: EVQLQQSGPELVKTGASVKISCKASGYSFTGYYMHWVKQSHGKSLEWIGYISSYNAFTTYNQRFRGKATFTVDTSSSTAYMQFNSLTSEDSAVYYCVRSDYYGTSLYWGQGTTLTVSS VL: QIVLTQSPAIMSASLGEEITLTCSASSSVSYMHWSQQKSGSSPKLLIYSTSNLASGVPSRFSGSGSGTFYSLTISSVEAEDAADYYCHQWSNYYTFGGGTKLEIK ... 0.000728 s⁻¹

The binder listed as huH34-2 (antibody, V domains shown, Humanized antibody expressed in HEK cells; also called huH34-2 bivalent; humanized version of H34) VH: QVQLVQSGAEVKKPGASVKVSCKASGYTFTGYYMHWVRQAPGQGLEWIGYISSYNAFTTYNQKFRGRATFTVDTSISTAYMELSRLRSDDTAVYYCVRSDYYGTSLYWGQGTLVTVSS VL: EIVLTQSPATLSLSPGERATLSCRASSSVSYMHWSQQKPGQAPRLLIYSTSNLASGIPARFSGSGSGTDFTLTISSLEPEDFAVYYCHQWSNYYTFGQGTKLEIK shows koff equal to 0.000118 s⁻¹
